In this section we review reported Antagonist: Jurkat/Reporter assay IC50 values for a set of binders.
- Experimental System: Human CD40 (human, UniProt P25942 21-277)
- Sequence (P25942 21-277 limits assumed): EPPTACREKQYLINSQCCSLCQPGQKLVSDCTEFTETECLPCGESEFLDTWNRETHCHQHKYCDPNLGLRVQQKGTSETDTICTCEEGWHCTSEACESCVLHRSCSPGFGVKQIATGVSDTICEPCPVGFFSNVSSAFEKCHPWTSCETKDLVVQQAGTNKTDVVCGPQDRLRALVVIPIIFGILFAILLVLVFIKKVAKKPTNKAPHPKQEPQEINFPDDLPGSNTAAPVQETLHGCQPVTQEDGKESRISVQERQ
- Method: cell-based or functional assay
Write down the numeric answer in nM and omit the unit.

The reported value for huAb1v6 (antibody, V domains shown) VH: EVQLVESGGGLVKPGGSLRLSCAASGFTFSDYGMNWVRQAPGKGLEWIAYISSGRSNIYYADTVKGRFTISRDNAKNSLYLQMNSLRAEDTAVYYCARSWGYFDVWGQGTTVTVSS VL: DIVMTQSPDSLAVSLGERATINCKSSQSLLNLGNQKNYLTWFQQKPGQPPKLLIYWASTRESGVPDRFSGSGSGTDFTLTISSLQAEDVAVYYCQNDYTYPLTFGQGTKLEIK in terms of Antagonist: Jurkat/Reporter assay IC50 is 85

The reported value for huAb1v1 (antibody, V domains shown) VH: EVQLVESGGGLVKPGGSLRLSCAASGFTFSDYGMNWVRQAPGKGLEWIAYISSGRSNIYYADTVKGRFTISRDNAKNSLYLQMNSLRAEDTAVYYCARSWGYFDVWGQGTTVTVSS VL: DIVMTQSPDSLAVSLGERATINCKSSQSLLNRGNQKNYLTWFQQKPGQPPKLLIYWASTRESGVPDRFSGSGSGTDFTLTISSLQAEDVAVYYCQNDYTYPLTFGQGTKLEIK in terms of Antagonist: Jurkat/Reporter assay IC50 is 55
